- experimental.setup: rat, in vivo, po, 3 mg/kg
- Description: AUClast in cannulated Sprague-Dawley rat assessed as atazanavir level at 3 mg/kg equiv of atazanavir administered orally by UPLC/MS/MS analysis
observation.type: AUClast (µM·h)

Ask | For the compound COC(=O)N[C@H](C(=O)N[C@@H](Cc1ccccc1)[C@H](CN(Cc1ccc(-c2ccccn2)cc1)NC(=O)[C@@H](NC(=O)OC)C(C)(C)C)OC(=O)CN(C)C)C(C)(C)C , report AUClast.
Reply | 0.0457

a = COC(=O)N[C@H](C(=O)N[C@@H](Cc1ccccc1)[C@H](CN(Cc1ccc(-c2ccccn2)cc1)NC(=O)[C@@H](NC(=O)OC)C(C)(C)C)OC(=O)[C@@H](N)Cc1ccc(O)cc1)C(C)(C)C
b = COC(=O)N[C@H](C(=O)N[C@@H](Cc1ccccc1)[C@H](CN(Cc1ccc(-c2ccccn2)cc1)NC(=O)[C@@H](NC(=O)OC)C(C)(C)C)OC(=O)CNC(=O)[C@H](N)Cc1ccccc1)C(C)(C)C
Ask | Compare a and b and name the one whose reported AUClast is smaller. Bench note: the answer is the label of the chosen record.
Reply | a

----------
- assay.explanation: Half life in rat whole blood at 1 uM by UPLC-MS/MS analysis
- Type: ADME, tissue-based
observation.type: half-life at 1 µM

Ask | For the compound COC(=O)N[C@H](C(=O)N[C@@H](Cc1ccccc1)[C@H](CN(Cc1ccc(-c2ccccn2)cc1)NC(=O)[C@@H](NC(=O)OC)C(C)(C)C)OC(=O)[C@@H](N)Cc1ccccc1)C(C)(C)C , report half-life at 1 µM.
Reply | > 2 h

----------
- assay.explanation: in vitro
- experimental.setup: human, Caco-2
- Description: Efflux ratio of apparent permeability across basolateral to apical side over apical to basolateral side in human Caco2 cells
observation.type: efflux ratio

Below, 5 compounds whose answers are already recorded.
Ask | For the compound COC(=O)N[C@H](C(=O)N[C@@H](Cc1ccccc1)[C@H](CN(Cc1ccc(-c2ccccn2)cc1)NC(=O)[C@@H](NC(=O)OC)C(C)(C)C)OC(=O)[C@@H](N)Cc1ccc(O)cc1)C(C)(C)C , report efflux ratio.
Reply | > 4.7

Ask | For the compound COC(=O)N[C@H](C(=O)N[C@@H](Cc1ccccc1)[C@H](CN(Cc1ccc(-c2ccccn2)cc1)NC(=O)[C@@H](NC(=O)OC)C(C)(C)C)OC(=O)CN(C)C)C(C)(C)C , report efflux ratio.
Reply | > 8.8

Ask | For the compound COC(=O)N[C@H](C(=O)N[C@@H](Cc1ccccc1)[C@H](CN(Cc1ccc(-c2ccccn2)cc1)NC(=O)[C@@H](NC(=O)OC)C(C)(C)C)OC(=O)CNCc1ccccc1)C(C)(C)C , report efflux ratio.
Reply | > 6.4

Ask | For the compound COC(=O)N[C@H](C(=O)N[C@@H](Cc1ccccc1)[C@H](CN(Cc1ccc(-c2ccccn2)cc1)NC(=O)[C@@H](NC(=O)OC)C(C)(C)C)OC(=O)[C@@H](N)Cc1ccccc1)C(C)(C)C , report efflux ratio.
Reply | > 8.7

Ask | For the compound COC(=O)N[C@H](C(=O)N[C@@H](Cc1ccccc1)[C@H](CN(Cc1ccc(-c2ccccn2)cc1)NC(=O)[C@@H](NC(=O)OC)C(C)(C)C)OC(=O)[C@@H](N)Cc1ccc(F)cc1)C(C)(C)C , report efflux ratio.
Reply | > 5.5

For the next question, use this compound.
Ask | For the compound COC(=O)N[C@H](C(=O)N[C@@H](Cc1ccccc1)[C@@H](O)CN(Cc1ccc(-c2ccccn2)cc1)NC(=O)[C@@H](NC(=O)OC)C(C)(C)C)C(C)(C)C , report efflux ratio.
Reply | > 14
